Measurement target: GX2013 RBD (SARSr-CoV BtRs-BetaCoV/GX2013)
Assay procedure: BLI
Assay metric: binding result

{"columns": ["Binder", "binding result"],
 "data": [
  ["ZL525 (antibody, V domains shown) V domain 1: QVQLVQSGAEVKKPGSSMKVSCQASGGTFSSHPISWIRQAPGQGLEWMGRIIPIAGMTDYGQKFQGRITITADTSTSTSYVELRGLRSQDTAFYYCAKDVGYSDYGSAYYFHTWGQGTLITVSS V domain 2: QSVLTQPPSVSGAPGQRVTISCTGSNSNIGAGYDVHWYQQLPGTAPKLLIYRNNKRPSGVPDRFSGSKSDTSASLAITGLQAEDEAHYYCQSFDSSLGGSLFGGGTKLAVL", "binds"],
  ["C807 (antibody, V domains shown) VH: QVQLVQSGAEAKKPGSSVKVSCKASGGTFKSYIINWVRQAPGQGLEWMGEIIPIFGTANYAQKFQGRVTSTADESTSTAYMELSSLKSEDTAVYYCARGRGYSGYGASYYFDYWGQGTLVTVSS VL: QSVLTQPPSVSGAPGQRVTISCTGSNSNIGAGYDVHWYQQLPGTAPKLLIYANSNRPSGVPDRFSGSKSGTSASLAITGLQAEDEADYYCQSYDSGLSGSVFGGGTKLTVL", "binds"],
  ["BD56-104 (antibody, V domains shown) VH: QVQLVQSGAEVKTPGSSVKVSCKASGGTFGSHSITWVRQAPGQGLEWMGRVIPILGIPDFAESFQGRVAITADRSTSTAHMELSRLRSEDTAVYYCARDVGYSGSGSSNYFDSWGQGTLVTVSS VL: QSVLTQPPSVSGAPGQRVTISCTGSNSNIGAGYDVHWYRQLPGTAPKLLIYVNNNRPSGVPDRFSGSRSGASASLAITGLQAEDEAEYYCQSYDSSLSGSIFGGGTKLTVL", "binds"],
  ["BD56-597 (antibody, V domains shown) VH: QVQLVQSGAEVKKPGSSVKVSCKASGGTFSTYPISWVRQAPGQGVEWMGAIIPILGTTDYAQIFQGRVTITADKSTSTAYMELSSLRPEDTAVYYCARERGYSGYGAAYYFDSWGQGTLVTVSS VL: QSVLTQPPSVSGAPGQRVTISCTGSDSNIGAGYDVHWYQQLPGTAPKLLIYVNINRPSGVPDRFSGSKSATSASLAITGLQAEDEADYYCQSYDSSLSGVVFGGGTKLTVL", "binds"]
]}

Task item: State, in one line, measured binding result of C092 (antibody, V domains shown) VH: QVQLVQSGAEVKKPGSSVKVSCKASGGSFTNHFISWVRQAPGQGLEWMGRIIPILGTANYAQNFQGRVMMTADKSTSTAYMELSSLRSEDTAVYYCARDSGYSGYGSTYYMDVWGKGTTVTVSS VL: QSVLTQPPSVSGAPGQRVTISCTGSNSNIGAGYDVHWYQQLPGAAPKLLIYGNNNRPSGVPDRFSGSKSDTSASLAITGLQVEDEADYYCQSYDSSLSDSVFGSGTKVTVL
Reply: binds
